protocol_text: E. coli DRC41 culture turbidity changes, primary screen, E. coli filamentation inducer project, strain DRC41, OD650, 48 h (AID 1152);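 further: E. coli MC1000 strain DRC41 lacking acrAB efflux pump and sulA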
conditions_used: E. coli DRC41 (acrAB sulA), higher = more signal, called active from +8 up or from −8 down
Calls of active or inactive are those of the source.
recorded_endpoint: z-score

Below, each entry is followed by its recorded z-score result.
molecule | z-score
CC(C)[C@@H](C(=O)O)n1cc(-c2ccccc2)nn1 | -1.08 (inactive)
C[C@]1(C(=O)NCC(F)(F)F)c2ccccc2C(=O)N(Cc2ccc(OC(F)(F)F)cc2)[C@H]1c1ccc(CO)cc1 | -0.831 (inactive)
C=C(COC)/C(=C/C[C@H](OC(=O)c1ccncc1)c1cccc(OCCO)c1)c1cnc2ccccc2c1 | -0.223 (inactive)
COCCCN1C(=O)[C@@]2(Cc3ccccc31)c1ccccc1C(=O)N(Cc1ccccc1OC)[C@H]2c1ccc(CO)cc1 | 0.168 (inactive)

What does the record list as z-score for O=C1C2C=CC(C(O)c3cccc(O)c3)N(Nc3ccccc3F)C2C(=O)N1c1ccccc1 (stereo not given) ?
0.906 (inactive)

* * *

protocol_text: binders of probe aFSTL3 on microarray, primary screen, stem cell growth factor project, biochemical, small-molecule microarray, fluorescence 635/667 (AID 1064);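 further: measures binding of the biotinylated anti-FSTL3 antibody to printed compounds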
conditions_used: higher = more signal
recorded_endpoint: composite z-score
The reply should be a number, written without any unit.

Example entries begin here.
compound | recorded_endpoint | result_number
CC#CCO[Si](C#CCCCCCC)(C(C)C)C(C)C | composite z-score | 1.3
COC(=O)[C@@]1(Cc2ccccc2)[C@H]2c3cc(C(=O)N4CCCC4)n(Cc4ccc(C(F)(F)F)nc4)c3C[C@H]2CN1C(=O)c1ccccc1 | composite z-score | 0.356
Cc1ccc(S[C@]2(C(=O)NCC(F)(F)F)CC(=O)N(C3CCCCC3)[C@@H]2c2ccc(CO)cc2)cc1 | composite z-score | 0.169

Tell me the measured composite z-score of "CN(C)CCCCNC(=O)[C@H]1C[C@H]2C(=O)N[C@@H](Cc3ccccc3)C(=O)N2[C@H]1c1cccc(OCCO)c1" , please.
0.863

If you can, please state the reported composite z-score value of "COCCOC(=O)N1C(=O)[C@@]2(c3cc(C#CC4(O)CCCCCC4)ccc31)[C@H](c1ccc(OCCO)cc1)N1[C@H](c3ccccc3)[C@H](c3ccccc3)OC(=O)[C@H]1[C@@H]2C(N)=O" .
-0.392

Report composite z-score for "CCCC=C(CCC)[C@@H](NC(=O)c1ccccc1)c1ccc(C(=O)OC)cc1" please.
0.0872

* * *

protocol_text: compound binding in COS7 lysate, probe aLAP1, primary screen, cell lysate, small-molecule microarray (AID 1124);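 further: lysate comes from COS7 cells expressing LAP1 and is applied at 0.3 µg/mL; score merges spot fluorescence near 667 nm with signal-to-noise over triplicate slides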
conditions_used: probe aLAP1, fluorescence, higher = more signal
Label not satisfied if composite z-score falls below 0.4; label satisfied in every other case.

Solved entries (count: 5):
compound | answer_label
CCCCC(O)C1C=CC2C(=O)NC(=O)C2N1Nc1ccc(Cl)cc1Cl (configuration not stated) | not satisfied
O=C1O[C@H](c2ccccc2)[C@H](c2ccccc2)N2[C@H]1[C@@H](C(=O)NC[C@H](O)c1ccccc1)[C@]1(C(=O)Nc3ccc(C#CCCO)cc31)[C@H]2c1ccccc1OCCO | satisfied
C=CCNC(=O)[C@H]1[C@@H]2C(=O)O[C@@H](c3ccccc3)[C@@H](c3ccccc3)N2[C@@H](c2ccc(O)cc2)[C@]12C(=O)Nc1ccc(C#CC3=CCCCC3)cc12 | satisfied
C=CCC(OC(C)=O)[C@@H]1[C@@H](N(Cc2cc3ccccc3o2)C(=O)c2ccc(-c3ccccc3)cc2)c2cc(OCCCO)ccc2N1C(=O)c1ccc2ccccc2n1 (some centres not stated) | not satisfied
[N-]=[N+]=NCc1ccccc1C[C@]1(C(=O)O)COC(c2ccc(OCCCO)cc2)=N1 | not satisfied

Turning now to a further record.
Can "[N-]=[N+]=NCc1ccccc1C[C@]1(C(=O)N2CCOCC2)N=C(c2ccc(OCCCO)cc2)O[C@H]1c1ccccc1CN=[N+]=[N-]" be said to have composite z-score at or above 0.4?
satisfied
